Source: patent US9101600B2

Let's look at some compounds and their measured Curve Class.
# target-entity: RORγ/γt (Mus musculus, UniProt P51450, T352K)
# Sequence (P51450 with tags, fused parts or gaps T352K): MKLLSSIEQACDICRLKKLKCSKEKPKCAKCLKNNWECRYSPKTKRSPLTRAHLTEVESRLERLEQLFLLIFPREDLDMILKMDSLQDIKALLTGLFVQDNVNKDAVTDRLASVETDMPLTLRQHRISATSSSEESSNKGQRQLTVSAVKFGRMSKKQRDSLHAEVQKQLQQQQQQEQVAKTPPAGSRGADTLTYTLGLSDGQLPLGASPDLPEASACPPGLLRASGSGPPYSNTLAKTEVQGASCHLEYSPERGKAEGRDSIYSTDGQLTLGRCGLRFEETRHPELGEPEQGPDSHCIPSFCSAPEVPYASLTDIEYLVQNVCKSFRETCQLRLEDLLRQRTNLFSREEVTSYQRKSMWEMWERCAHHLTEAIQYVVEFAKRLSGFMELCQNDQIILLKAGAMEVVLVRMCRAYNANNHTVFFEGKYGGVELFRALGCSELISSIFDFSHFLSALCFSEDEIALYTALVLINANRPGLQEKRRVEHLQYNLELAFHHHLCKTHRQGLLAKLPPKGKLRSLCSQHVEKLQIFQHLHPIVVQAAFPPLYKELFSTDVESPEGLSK
# measurement-notes: RORγ/γt-luc reporter S2 cell assay / HTS (firefly luciferase)
# run-conditions: RORγ/γt HTS concentration response curve class
Give the figure by itself; no unit, no explanation.

Past entries and their recorded results:
[[record]]
structure_as_smiles = "CCOC(=O)[C@@H]1[C@H]2COc3ccc(Br)cc3[C@@H]2N2C(=O)N(c3ccc(C(F)(F)F)cc3)C(=O)[C@@]12C"
quantity_name = "Curve Class"
quantitative_result = 4

[[record]]
structure_as_smiles = "CCOC(=O)[C@@H]1[C@H]2COc3ccccc3[C@@H]2N2C(=O)N(c3ccc(C)cc3)C(=O)[C@]12C"
quantity_name = "Curve Class"
quantitative_result = 4

[[record]]
structure_as_smiles = "CCOC(=O)[C@@H]1[C@H]2COc3ccc(Br)cc3[C@H]2N2C(=O)N(c3ccc(Cl)cc3)C(=O)[C@@]12C"
quantity_name = "Curve Class"
quantitative_result = 4

[[record]]
structure_as_smiles = "CCOC(=O)[C@@H]1[C@H]2COc3cc(OC)ccc3[C@@H]2N2C(=O)N(c3ccc(C)cc3)C(=O)[C@@]12C"
quantity_name = "Curve Class"
quantitative_result = "−2.1"

[[record]]
structure_as_smiles = "CCOC(=O)[C@@H]1[C@H]2COc3ccc(Br)cc3[C@@H]2N2C(=O)N(c3ccc(F)cc3)C(=O)[C@]12C"
quantity_name = "Curve Class"
quantitative_result = 4

[[record]]
structure_as_smiles = "CCOC(=O)[C@@H]1[C@H]2COc3cc(OC)ccc3[C@H]2N2C(=O)N(c3cccc(Cl)c3)C(=O)[C@@]12C"
quantity_name = "Curve Class"
quantitative_result = 4

[[record]]
structure_as_smiles = "CCOC(=O)[C@@H]1[C@H]2COc3ccccc3[C@H]2N2C(=O)N(c3ccc(F)cc3)C(=O)[C@]12C"
quantity_name = "Curve Class"
quantitative_result = 4

[[record]]
structure_as_smiles = "CCOC(=O)[C@@H]1[C@H]2COc3ccccc3[C@@H]2N2C(=O)N(c3ccc(F)cc3)C(=O)[C@@]12C"
quantity_name = "Curve Class"
quantitative_result = "−2.2"


Attention now shifts to the item below.
Briefly, Curve Class measured for CCOC(=O)[C@@H]1[C@H]2COc3ccccc3[C@@H]2N2C(=O)N(c3ccccc3)C(=O)[C@@]12C : −2.1

###

# target-entity: RORγ/γt (Mus musculus, UniProt P51450, T352K)
# measurement-notes: RORγ/γt-luc reporter S2 cell assay / HTS (firefly luciferase)
Threshold 10 µM: AC50 strictly smaller gives Yes, otherwise No.

Worked cases, answers included:
[[record]]
structure_as_smiles = "CCOC(=O)[C@@H]1[C@H]2COc3cc(OC)ccc3[C@@H]2N2C(=O)N(c3cccc(Cl)c3)C(=O)[C@@]12C"
class_assignment = "No"

[[record]]
structure_as_smiles = "CCOC(=O)[C@@H]1[C@H]2COc3ccccc3[C@@H]2N2C(=O)N(c3ccccc3)C(=O)[C@]12C"
class_assignment = "Yes"

[[record]]
structure_as_smiles = "CCOC(=O)[C@@H]1[C@H]2COc3cc(OC)ccc3[C@@H]2N2C(=O)N(c3ccc(C(F)(F)F)cc3)C(=O)[C@@]12C"
class_assignment = "No"

[[record]]
structure_as_smiles = "CCOC(=O)[C@@H]1[C@H]2COc3ccccc3[C@@H]2N2C(=O)N(c3ccc(Cl)cc3)C(=O)[C@]12C"
class_assignment = "Yes"

[[record]]
structure_as_smiles = "CCOC(=O)[C@@H]1[C@H]2COc3ccc(Br)cc3[C@@H]2N2C(=O)N(c3ccc(C)cc3)C(=O)[C@]12C"
class_assignment = "No"


Asked: is_below(AC50, 10 µM) for CCOC(=O)[C@@H]1[C@H]2COc3cc(OC)ccc3[C@H]2N2C(=O)N(c3ccc(C)cc3)C(=O)[C@@]12C ?
Given back: Yes
